Method Summary: In vitro transbuccal permeation of 0.5% ODAN.HCl gel with iontophoresis and/or chemical enhancers (Franz diffusion cells)
Measurement Setup: Stage II; Control (passive)
Structures can show the parent of a compound that is named as a salt.
Metric Name: Q24
Could you write the number and then its unit?

Measured Q24 of Cc1nccn1CC1CCc2c(c3ccccc3n2C)C1=O (racemic) [ODAN•HCl, monohydrochloride, dihydrate] : 105 µg/cm²

----------
Method Summary: In vitro transbuccal permeation of 0.5% ODAN.HCl gel with iontophoresis and/or chemical enhancers (Franz diffusion cells)
Measurement Setup: Stage I; iontophoresis 0.2 mA
Counter-ions that a name gives are not always drawn.
Metric Name: Q8 (µg/cm²)
Numbers only, in µg/cm².

Measured Q8 of Cc1nccn1CC1CCc2c(c3ccccc3n2C)C1=O (racemic) [ODAN•HCl, monohydrochloride, dihydrate] : 133
